Molecular target: LRRK2 G2019S (Homo sapiens, UniProt Q5S007, G2019S)
Sequence (Q5S007 970-2527 G2019S): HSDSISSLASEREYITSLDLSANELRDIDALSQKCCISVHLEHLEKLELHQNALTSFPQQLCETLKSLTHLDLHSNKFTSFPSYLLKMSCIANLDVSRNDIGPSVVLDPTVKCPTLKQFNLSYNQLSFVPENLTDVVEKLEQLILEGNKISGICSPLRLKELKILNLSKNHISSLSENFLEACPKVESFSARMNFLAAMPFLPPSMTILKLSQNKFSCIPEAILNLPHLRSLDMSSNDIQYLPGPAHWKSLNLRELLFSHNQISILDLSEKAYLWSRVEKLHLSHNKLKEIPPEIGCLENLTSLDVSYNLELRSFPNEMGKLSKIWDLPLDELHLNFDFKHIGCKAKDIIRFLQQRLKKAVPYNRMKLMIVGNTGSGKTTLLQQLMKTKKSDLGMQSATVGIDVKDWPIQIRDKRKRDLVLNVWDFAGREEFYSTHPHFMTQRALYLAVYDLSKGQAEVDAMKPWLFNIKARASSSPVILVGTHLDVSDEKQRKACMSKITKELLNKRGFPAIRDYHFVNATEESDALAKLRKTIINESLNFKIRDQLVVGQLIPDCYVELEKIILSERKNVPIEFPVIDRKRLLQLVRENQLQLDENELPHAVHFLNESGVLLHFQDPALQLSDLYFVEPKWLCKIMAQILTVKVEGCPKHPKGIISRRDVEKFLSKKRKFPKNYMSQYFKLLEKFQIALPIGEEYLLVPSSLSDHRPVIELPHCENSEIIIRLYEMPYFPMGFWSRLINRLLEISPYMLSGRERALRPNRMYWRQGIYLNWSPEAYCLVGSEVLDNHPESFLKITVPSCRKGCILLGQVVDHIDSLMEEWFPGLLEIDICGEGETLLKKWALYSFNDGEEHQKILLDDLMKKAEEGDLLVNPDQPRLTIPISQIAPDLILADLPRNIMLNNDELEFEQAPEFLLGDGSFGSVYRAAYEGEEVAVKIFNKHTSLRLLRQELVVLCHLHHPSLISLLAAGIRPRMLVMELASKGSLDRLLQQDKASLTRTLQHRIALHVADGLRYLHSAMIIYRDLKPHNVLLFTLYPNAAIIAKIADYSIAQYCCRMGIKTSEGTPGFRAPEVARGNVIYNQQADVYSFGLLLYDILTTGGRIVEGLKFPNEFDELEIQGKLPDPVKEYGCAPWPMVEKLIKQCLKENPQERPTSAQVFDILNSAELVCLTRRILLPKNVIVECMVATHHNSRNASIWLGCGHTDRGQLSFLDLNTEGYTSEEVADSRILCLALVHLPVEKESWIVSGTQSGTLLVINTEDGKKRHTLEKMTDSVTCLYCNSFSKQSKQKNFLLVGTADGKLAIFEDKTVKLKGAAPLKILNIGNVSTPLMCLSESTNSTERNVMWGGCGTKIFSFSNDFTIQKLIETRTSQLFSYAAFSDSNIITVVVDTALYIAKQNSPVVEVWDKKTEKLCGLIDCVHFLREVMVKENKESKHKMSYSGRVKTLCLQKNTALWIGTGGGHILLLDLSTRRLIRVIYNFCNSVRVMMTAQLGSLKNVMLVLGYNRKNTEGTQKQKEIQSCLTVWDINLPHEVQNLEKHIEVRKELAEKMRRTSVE
Assay: LRRK2 G2019S kinase activity assay (LanthaScreen TR-FRET)
Settings: 250 pM LRRK2 G2019S, 1.3 mM ATP, 3 h at 30° C.; n≥2 tests
For each entry below, report its IC50 value.
One number for each entry, in nM.

>  <Compound>
Cc1c2c(nn1[C@@H]1CCOC[C@@H]1C)OCCCn1nc(Cl)c3cnc(nc31)N2 (single isomer, unassigned) [Example 21]

>  <Unit Of Measure>
nM

>  <IC50>
3.7

$$$$

For each of the compounds below, state IC50.
1. [2H]C1([2H])CCn2nc(Cl)c3cnc(nc32)Nc2c(nn(C3CCOCC3)c2C)O1
2. Cc1c2c(nn1[C@H]1CCOC(C)(C)C1)OCCCn1nc(Cl)c3cnc(nc31)N2 (single isomer, unassigned) [Example 43]
3. Cc1c2c(nn1[C@@H]1CCO[C@H](C)C1)OCCCn1nc(Cl)c3cnc(nc31)N2 (single isomer, unassigned) [Example 18]
4. Cc1c2c(nn1[C@H]1CCCOCC1)OCCCn1nc(Cl)c3cnc(nc31)N2 (single isomer, unassigned) [Example 30]
5. [2H]C([2H])([2H])c1c2c(nn1[C@@H]1CCOC[C@H]1F)OCCCn1nc(Cl)c3cnc(nc31)N2 (single isomer, unassigned) [Example 63]

[3.1, 5.3, 3.6, 4, 4]
